# STUDY TARGET: MDM2 (Homo sapiens, UniProt Q00987)
# Sequence (Q00987 whole entry): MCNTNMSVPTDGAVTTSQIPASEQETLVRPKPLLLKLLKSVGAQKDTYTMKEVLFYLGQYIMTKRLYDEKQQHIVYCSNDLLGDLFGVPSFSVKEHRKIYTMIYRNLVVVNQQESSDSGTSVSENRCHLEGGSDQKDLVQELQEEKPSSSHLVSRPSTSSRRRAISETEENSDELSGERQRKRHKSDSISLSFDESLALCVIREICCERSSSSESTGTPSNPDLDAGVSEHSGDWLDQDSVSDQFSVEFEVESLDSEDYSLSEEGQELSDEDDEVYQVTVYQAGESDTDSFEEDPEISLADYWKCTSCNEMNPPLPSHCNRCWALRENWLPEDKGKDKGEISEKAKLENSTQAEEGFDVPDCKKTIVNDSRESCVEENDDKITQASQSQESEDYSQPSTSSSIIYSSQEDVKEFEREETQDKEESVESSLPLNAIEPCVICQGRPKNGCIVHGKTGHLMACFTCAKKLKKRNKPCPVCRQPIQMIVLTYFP
# PROTOCOL TEXT: MDM2 binding screen: displacement of fluorescent p53 peptide probe FP53 (fluorescence polarization)
# CONDITION: Acid 91; initial screen; crude macrocycle reactions
Numbered stars: 1 amine (or outer) side, 2 acyl side, 3 side chain; on linkers, the order of the positions; unused ones are H or OH. Bridge positions count the residues as written; N and C are the ends. Square brackets hold non-standard residues; d marks the D form. Peptide text beside a SMILES is read from it. * marks the point of attachment. Cysteamide = C(CS[*:3])N[*:1]; X1 = O=C(/C=C/c1ccccc1)*; Api = NC1(C(=O)O)CCNCC1; Dap = NC[C@H](N)C(=O)O; Mpa = O=C(O)CCS
So basically: fraction fluorescent probe displaced, Screen at 0.08 or higher? That is T. Lower than 0.08? That is F.

For orientation, consider the following solved cases.
COMPOUND	ASSIGNED CATEGORY
O=C1CCSSCCNC(=O)C2CCCN2C(=O)C2CN(C(=O)C=Cc3ccccc3)CCN2C(=O)C(Cc2ccccc2)N1 (mixture of isomers)	F
O=C1CCSSCCNC(=O)[C@H]2CCCN(C2)C(=O)C2(CCN(C(=O)/C=C/c3ccccc3)CC2)NC(=O)[C@H](Cc2c[nH]c3ccccc23)N1	T
O=C(/C=C/c1ccccc1)NC[C@@H]1NC(=O)CCNC(=O)CCSSCCNC(=O)[C@H](Cc2ccccc2)NC1=O	F
O=C(/C=C/c1ccccc1)NC[C@@H]1NC(=O)[C@@H]2CCCN2C(=O)[C@H](Cc2c[nH]c3ccccc23)NC(=O)CCSSCCNC1=O [X W B1 D3 Acid 91] ([Mpa]WP[Dap](X1)-Cysteamide; disulfide 1-C)	T

Here is another compound to look at.
Query string: Is the recorded value of fraction fluorescent probe displaced, Screen equal to or greater than 0.08 for this compound? O=C1CCSSCCNC(=O)[C@H](Cc2c[nH]c3ccccc23)NC(=O)[C@@H]2CCCN2C(=O)C2(CCN(C(=O)/C=C/c3ccccc3)CC2)N1 [X D6 B1 W Acid 91] ([Mpa][Api](X1)PW-Cysteamide; disulfide 1-C)
Result string: F

---

The following molecules are shown together with reported % thrombin activity, Repeat screen values.
# STUDY TARGET: thrombin (Homo sapiens)
# Construct: consists of two polypeptide chains of 36 (light chain) and 259 amino acid
# PROTOCOL TEXT: Thrombin inhibition screen of crude macrocycle reactions (residual thrombin activity, fluorogenic substrate Z-Gly-Gly-Arg-AMC)
# Assay type: biochemical
# CONDITION: 10 µM macrocycle concentration; macrocycles containing acid 14; crude reaction; replicate reaction and screen
Numbered stars: 1 amine (or outer) side, 2 acyl side, 3 side chain; on linkers, the order of the positions; unused ones are H or OH. Bridge positions count the residues as written; N and C are the ends. Peptide text beside a SMILES is read from it. * marks the point of attachment. 2Thenoyl(5-Cl) = O=C(c1ccc(Cl)s1)*; Cysteamide = C(CS[*:3])N[*:1]
Write the answer as a number in %, unit excluded.

Study these solved cases before continuing.
MOLECULE	UNIT SPEC	% thrombin activity, Repeat screen
NC(=O)CC[C@@H]1NC(=O)C2(CC2)CNC(=O)CCSSCCNC(=O)[C@H](CCCNC(=O)c2ccc(Cl)s2)NC1=O [X B6 Q D2]	%	95.8
O=C1CCSSCCNC(=O)[C@H](CO)NC(=O)[C@H](CNC(=O)c2ccc(Cl)s2)NC(=O)CCN1	%	76.6
O=C1CCNC(=O)[C@@H](Cc2ccc(O)cc2)NC(=O)C2(CCN(C(=O)c3ccc(Cl)s3)CC2)NC(=O)CCSSCCN1	%	104.5
O=C1CCSSCCNC(=O)[C@H](Cc2ccccc2)NC(=O)CCNC(=O)[C@H](CNC(=O)c2ccc(Cl)s2)N1	%	56.2
O=C1CCSSCCNC(=O)[C@H]2CCCN(C2)C(=O)[C@H](Cc2ccccc2)NC(=O)[C@H](CCCCNC(=O)c2ccc(Cl)s2)N1 [X D1 F B4]	%	102.4

% thrombin activity, Repeat screen recorded for this molecule, O=C1CNC(=O)[C@@H]2CCCN2C(=O)[C@@H](NC(=O)c2ccc(Cl)s2)CSSCCNC(=O)[C@H](Cc2ccccc2)N1 [C B1 G F] ({2Thenoyl(5-Cl)}-CPGF-Cysteamide; disulfide 1-C) , is 96.1

% thrombin activity, Repeat screen recorded for this molecule, `CC[C@H](C)[C@@H]1NC(=O)c2ccc(cc2)CNC(=O)[C@@H](NC(=O)c2ccc(Cl)s2)CSSCCNC(=O)CNC1=O` , is 113.6

% thrombin activity, Repeat screen recorded for this molecule, `O=C1CNC(=O)[C@@H](NC(=O)c2ccc(Cl)s2)CSSCCNC(=O)c2ccc(cc2)CNC(=O)[C@@H](CO)N1` , is 99.7

% thrombin activity, Repeat screen recorded for this molecule, O=C1CCNC(=O)[C@H](CO)NC(=O)[C@H](CCCNC(=O)c2ccc(Cl)s2)NC(=O)CCSSCCN1 [X D2 S B2] , is 107.4

---

# STUDY TARGET: thrombin (Homo sapiens)
# Construct: consists of two polypeptide chains of 36 (light chain) and 259 amino acid
# PROTOCOL TEXT: Thrombin inhibition screen of crude macrocycle reactions (residual thrombin activity, fluorogenic substrate Z-Gly-Gly-Arg-AMC)
# Format: biochemical
# CONDITION: 10 µM macrocycle concentration; macrocycles containing acid 14; crude reaction; replicate reaction and screen
Numbered stars: 1 amine (or outer) side, 2 acyl side, 3 side chain; on linkers, the order of the positions; unused ones are H or OH. Bridge positions count the residues as written; N and C are the ends. Square brackets hold non-standard residues; d marks the D form. Peptide text beside a SMILES is read from it. * marks the point of attachment. 2Thenoyl(5-Cl) = O=C(c1ccc(Cl)s1)*; Cysteamide = C(CS[*:3])N[*:1]; Dap = NC[CH](N)C(=O)O; Mpa = O=C(O)CCS
QUANTITY KIND: % thrombin activity, Repeat screen (%)
Write the answer as a number in %, unit excluded.

COMPOUND	% thrombin activity, Repeat screen / %
CC1NC(=O)CCSSCCNC(=O)C2CCCN2C(=O)C(CNC(=O)c2ccc(Cl)s2)NC1=O (centres unmarked) [X a D4 B1] ([Mpa]A[Dap](2Thenoyl(5-Cl))P-Cysteamide; disulfide 1-C; configuration not given here)	109.8
O=C1CCSSCCNC(=O)C2(CCN(C(=O)c3ccc(Cl)s3)CC2)NC(=O)[C@H](Cc2c[nH]cn2)NC(=O)CCN1 [X B2 H D6]	101.7
NC(=O)CCC1NC(=O)C2CCCN(C2)C(=O)C(CNC(=O)c2ccc(Cl)s2)NC(=O)CCSSCCNC1=O (centres unmarked) [X D3 B4 Q]	90.2
CC(C)C[C@@H]1NC(=O)C2(CC2)CNC(=O)CNC(=O)[C@@H](NC(=O)c2ccc(Cl)s2)CSSCCNC1=O [C G B6 L]	114.8
CC(C)C[C@@H]1NC(=O)c2cccc(c2)CNC(=O)C2(CCN(C(=O)c3ccc(Cl)s3)CC2)NC(=O)CCSSCCNC1=O [X D6 B5 L]	108.9

Could you now look at the following compound, please?
% thrombin activity, Repeat screen recorded for this compound, C[C@H]1NC(=O)[C@H](CCCNC(=O)c2ccc(Cl)s2)NC(=O)CCSSCCNC(=O)CCNC1=O [X D2 a B2] , is 109.5

---

The following molecules are shown together with reported % thrombin activity, Original screen values.
# STUDY TARGET: thrombin (Homo sapiens, UniProt P00734)
# Construct: consists of two polypeptide chains of 36 (light chain) and 259 amino acid
# PROTOCOL TEXT: Thrombin inhibition screen of crude macrocycle reactions (residual thrombin activity, fluorogenic substrate Z-Gly-Gly-Arg-AMC)
# Format: biochemical
# CONDITION: 10 µM macrocycle concentration; macrocycles containing acid 14; crude reaction; original screen
Numbered stars: 1 amine (or outer) side, 2 acyl side, 3 side chain; on linkers, the order of the positions; unused ones are H or OH. Bridge positions count the residues as written; N and C are the ends. Square brackets hold non-standard residues; d marks the D form. Peptide text beside a SMILES is read from it. * marks the point of attachment. 2Thenoyl(5-Cl) = O=C(c1ccc(Cl)s1)*; Cysteamide = C(CS[*:3])N[*:1]; Api = NC1(C(=O)O)CCNCC1; Mpa = O=C(O)CCS
Write the answer as a number in %, unit excluded.

Study these solved cases before continuing.
MOLECULE	TEST RESULT
O=C1CCNC(=O)[C@@H](Cc2ccc(O)cc2)NC(=O)C2(CCN(C(=O)c3ccc(Cl)s3)CC2)NC(=O)CCSSCCN1 [X D6 y B2]	102.0
CC[C@H](C)[C@@H]1NC(=O)CCNC(=O)[C@H](CCCNC(=O)c2ccc(Cl)s2)NC(=O)CCSSCCNC1=O [X D2 B2 I]	101.0
O=C1CCSSCCNC(=O)C2CCCN(C2)C(=O)C(CCCCNC(=O)c2ccc(Cl)s2)NC(=O)C(Cc2ccc(O)cc2)N1 (stereo not shown) [X Y D1 B4]	97.9
O=C1CCSSCCNC(=O)[C@H]2CCCN(C2)C(=O)[C@H](Cc2ccccc2)NC(=O)[C@H](CCCCNC(=O)c2ccc(Cl)s2)N1 [X D1 F B4]	99.6
CC(C)C[C@@H]1NC(=O)CCSSCCNC(=O)[C@H](CCCCNC(=O)c2ccc(Cl)s2)NC(=O)C2(CC2)CNC1=O [X L B6 D1]	94.8

% thrombin activity, Original screen recorded for this molecule, O=C1CNC(=O)c2ccc(cc2)CNC(=O)[C@@H](NC(=O)c2ccc(Cl)s2)CSSCCNC(=O)[C@H](Cc2cnc[nH]2)N1 [C B3 G H] , is 103.1

% thrombin activity, Original screen recorded for this molecule, NC(=O)CC[C@@H]1NC(=O)C2(CCN(C(=O)c3ccc(Cl)s3)CC2)NC(=O)[C@@H]2CCCN2C(=O)CCSSCCNC1=O [X B1 D6 Q] ([Mpa]P[Api](2Thenoyl(5-Cl))Q-Cysteamide; disulfide 1-C) , is 91.7
